Test system: Streptococcus pneumoniae
PROTOCOL_SUMMARY: Antibacterial activity against levofloxacin-resistant Streptococcus pneumoniae isolate by agar dilution method
Format: functional
METRIC_NAME: MIC50 (µg/mL)
Note: unit µg/mL is implicit; provide only the numeric part.

A selection of reference data follows.
[
  {
    "COMPOUND": "CO/N=C(\\C(=O)N[C@@H]1C(=O)N2C(C(=O)O)=C(COC(C)=O)CS[C@H]12)c1csc(N)n1 [CEFOTAXIME]",
    "UNIT_ABBREVIATION": "µg/mL",
    "MIC50": 0.06
  },
  {
    "COMPOUND": "CCO/N=C(\\C(=O)N[C@@H]1C(=O)N2C(C(=O)[O-])=C(Sc3nc(-c4cc[n+](C)cc4)cs3)CS[C@H]12)c1nsc(NP(=O)(O)O)n1 [CEFTAROLINE FOSAMIL]",
    "UNIT_ABBREVIATION": "µg/mL",
    "MIC50": 0.03
  },
  {
    "COMPOUND": "CC1(C)S[C@@H]2[C@H](NC(=O)Cc3ccccc3)C(=O)N2[C@H]1C(=O)O [PENICILLIN G]",
    "UNIT_ABBREVIATION": "µg/mL",
    "MIC50": 0.06
  },
  {
    "COMPOUND": "C[C@H]1COc2c(N3CCN(C)CC3)c(F)cc3c(=O)c(C(=O)O)cn1c23.C[C@H]1COc2c(N3CCN(C)CC3)c(F)cc3c(=O)c(C(=O)O)cn1c23.O [LEVOFLOXACIN]",
    "UNIT_ABBREVIATION": "µg/mL",
    "MIC50": 16
  },
  {
    "COMPOUND": "CO/N=C(\\C(=O)N[C@@H]1C(=O)N2C(C(=O)O)=C(COC(N)=O)CS[C@H]12)c1ccco1 [CEFUROXIME]",
    "UNIT_ABBREVIATION": "µg/mL",
    "MIC50": 0.25
  }
]

Moving on to another compound below.
Inquiry: Quick one: MIC50 for CC1(C)S[C@@H]2[C@H](NC(=O)[C@H](N)c3ccccc3)C(=O)N2[C@H]1C(=O)O [AMPICILLIN] ?
Reply text: 0.12
